# subject-of-test: rat TRPA1 (Rattus norvegicus, UniProt Q6RI86)
# Construct: expressed in transfected cells
# Sequence (Q6RI86 whole entry): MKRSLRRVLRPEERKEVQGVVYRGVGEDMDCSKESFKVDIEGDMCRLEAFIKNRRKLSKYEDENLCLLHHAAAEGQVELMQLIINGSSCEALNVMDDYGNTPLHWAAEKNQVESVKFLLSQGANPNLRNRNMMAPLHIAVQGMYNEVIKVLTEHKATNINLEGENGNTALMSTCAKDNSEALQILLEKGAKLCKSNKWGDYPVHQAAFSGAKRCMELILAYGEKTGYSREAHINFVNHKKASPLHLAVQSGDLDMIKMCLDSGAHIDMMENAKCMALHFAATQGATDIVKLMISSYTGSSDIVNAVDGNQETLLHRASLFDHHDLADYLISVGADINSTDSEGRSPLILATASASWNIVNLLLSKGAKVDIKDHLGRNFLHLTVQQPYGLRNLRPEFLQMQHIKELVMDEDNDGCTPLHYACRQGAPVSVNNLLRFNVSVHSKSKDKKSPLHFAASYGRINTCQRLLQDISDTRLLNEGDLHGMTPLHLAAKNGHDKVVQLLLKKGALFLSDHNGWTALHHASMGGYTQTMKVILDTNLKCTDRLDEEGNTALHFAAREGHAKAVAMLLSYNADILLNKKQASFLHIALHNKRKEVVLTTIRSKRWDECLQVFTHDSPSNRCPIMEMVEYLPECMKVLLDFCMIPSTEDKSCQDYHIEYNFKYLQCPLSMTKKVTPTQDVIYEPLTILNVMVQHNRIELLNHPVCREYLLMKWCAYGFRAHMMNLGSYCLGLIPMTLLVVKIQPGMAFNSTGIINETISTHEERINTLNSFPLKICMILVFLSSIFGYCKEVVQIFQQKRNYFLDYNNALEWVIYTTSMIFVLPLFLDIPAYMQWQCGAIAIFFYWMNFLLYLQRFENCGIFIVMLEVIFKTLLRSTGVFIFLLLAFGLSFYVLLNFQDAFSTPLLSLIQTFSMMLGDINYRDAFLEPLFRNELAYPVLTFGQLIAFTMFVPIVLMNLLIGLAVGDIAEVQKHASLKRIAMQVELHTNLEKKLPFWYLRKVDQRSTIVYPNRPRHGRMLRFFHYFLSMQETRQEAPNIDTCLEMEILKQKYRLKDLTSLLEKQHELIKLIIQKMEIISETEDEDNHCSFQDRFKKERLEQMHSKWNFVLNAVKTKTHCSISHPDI
# method-description: Thermo-TRP assay: [Ca2+]i elevation (Fluo-4) in HEK-293 cells transfected with TRPA1
# Assay type: cell-based
# particulars: antagonist/desensitizing, added 5 min before AITC 100 μM; read-out: IC50 TRPA1
observed-property: IC50

{"compound": "CCCCCCC(C)(C)C1=CC2=C(C(=O)C1=O)[C@@H]1CC(C)=CC[C@H]1C(C)(C)O2", "IC50": "1.8 µM"}
{"compound": "C=C(C)[C@@H]1CCC(C)=C[C@H]1C1=C(O)C(=O)C(C(C)(C)CCCCCC)=CC1=O", "IC50": "3.5 µM"}
{"compound": "CCCCCCC(C)(C)C1=CC(=O)C2=C(OC(C)(CCC=C(C)C)C=C2)C1=O (stereo not shown)", "IC50": "0.35 µM"}

Note: attention shifts to another entry.
Exercise: # IC50 lookup, item `CCCCCCC(C)(C)C1=CC(=O)C(C/C=C(\C)CCC=C(C)C)=C(O)C1=O`
Key: 1.1 µM
